measured_target: Voltage-gated potassium channel subunit beta-2 (Rattus norvegicus)
test_method_notes: inhibitors of rat Kvbeta2 reductase activity – biochemical, NADPH fluorescence, primary screen (AID 622);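 note: slope of raw intensity against log time taken from 70 to 1610 s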
condition_description: recombinant KvBeta, 4-cyanobenzaldehyde reduction, at 10 µM, hits give high values
parameter: fluorescence slope
A bare number is all that is needed in reply.

molecule | fluorescence slope
CC(C)Cn1c(N)c(C(=O)COC(=O)c2cc(-c3ccco3)nc3ccccc23)c(=O)n(C)c1=O | -0.482
COc1cc(C(=O)OC(C)CN2CCCC2)cc(OC)c1OC (stereo not drawn) | -0.324

Give reported fluorescence slope for CSCCC(N=CC1=C(O)CC(C)(C)CC1=O)C(=O)O (stereo not drawn) (Voltage-gated potassium channel subunit beta-2 (Rattus norvegicus))
-0.363

Give reported fluorescence slope for Cc1ccc(NC(=O)C2CC=CCC2C(=O)N2CCCCC2)cc1 (stereo not drawn) (Voltage-gated potassium channel subunit beta-2 (Rattus norvegicus))
-0.499

Give reported fluorescence slope for COC(=O)c1ccccc1NC1c2ccccc2C(=O)N1c1cccnc1 (stereo not drawn) (Voltage-gated potassium channel subunit beta-2 (Rattus norvegicus))
-0.53

Give reported fluorescence slope for COCCn1nnnc1C(C(C)C)N1CCN(C(=O)c2ccco2)CC1 (stereo not drawn) (Voltage-gated potassium channel subunit beta-2 (Rattus norvegicus))
-0.511

Give reported fluorescence slope for O=c1c2cc(Cl)ccc2[nH]c(=S)n1Cc1ccco1 (Voltage-gated potassium channel subunit beta-2 (Rattus norvegicus))
-0.597

Give reported fluorescence slope for CCOC(=O)c1cccc(NC(=O)CS(=O)(=O)Cc2nc(-c3cccc(OC)c3)oc2C)c1 (Voltage-gated potassium channel subunit beta-2 (Rattus norvegicus))
-0.524

Give reported fluorescence slope for CC1CCN(CCn2c(=S)[nH]c3ncccc3c2=O)CC1 (Voltage-gated potassium channel subunit beta-2 (Rattus norvegicus))
-0.411

Give reported fluorescence slope for COc1ccc(N(C)C(=O)CCS(=O)(=O)c2cccc3nonc23)c(OC)c1 (Voltage-gated potassium channel subunit beta-2 (Rattus norvegicus))
-0.488

Give reported fluorescence slope for CC(C)(O)C1=NOC(c2ccccc2)C1 (stereo not drawn) (Voltage-gated potassium channel subunit beta-2 (Rattus norvegicus))
-0.411

Give reported fluorescence slope for CS(=O)(=O)N1CCCC(C(=O)NCCCN2CCC(Cc3ccccc3)CC2)C1 (stereo not drawn) (Voltage-gated potassium channel subunit beta-2 (Rattus norvegicus))
-0.602

Give reported fluorescence slope for NC(=O)CCS(=O)(=O)CCN1CCCCC1 (Voltage-gated potassium channel subunit beta-2 (Rattus norvegicus))
-0.435

Give reported fluorescence slope for CCOC(=O)C1=C(O)C(=O)N(c2ccc(S(N)(=O)=O)cc2)C1c1ccccc1 (stereo not drawn) (Voltage-gated potassium channel subunit beta-2 (Rattus norvegicus))
-0.61
